- Experiment Notes: surface tension of aqueous surfactant solutions and critical micelle concentration (K-12 Processor Tensiometer)
- Format: physicochemical
- Assay Context: carboxylate salts, deionized water; Table 5
Surf. Tens. at the CMC strictly under 20 dynes/cm means Y; at 20 dynes/cm or over means N.

Here are 2 compounds together with their reported answers.
Compound | Classification
O=C(O)C(F)(C(F)(F)F)C(F)(F)C(F)(F)C(F)(F)C(F)(F)C(F)(F)C(F)(F)C(F)(F)F (stereo not drawn) [Example M27, C7 F15 CF(CF3)COO^- Li^+] | N
O=C(O)C(F)(C(F)(F)F)C(F)(F)C(F)(F)C(F)(F)C(F)(F)C(F)(F)C(F)(F)F (stereo not drawn) [Example M22, C6 F13 CF(CF3)COO^- K^+] | Y

Dear reviewer, please state whether O=C(O)C(F)(C(F)(F)F)C(F)(F)C(F)(F)C(F)(F)C(F)(F)C(F)(F)C(F)(F)C(F)(F)F (stereo not drawn) [Example M20, C7 F15 CF(CF3)COO^- H3 N^+ C2 H4 OH] has Surf. Tens. at the CMC strictly beneath 20 dynes/cm.
Y

Dear reviewer, please state whether O=C(O)C(F)(F)C(F)(F)C(F)(F)C(F)(F)C(F)(F)C(F)(F)C(F)(F)F [FC-143, C7 F15 COO^- H4 N^+] has Surf. Tens. at the CMC strictly beneath 20 dynes/cm.
N
